The reported measurements were obtained from patent US11433099B2.

# targetSystem: HLA-B*08:01 (Homo sapiens)
# protocolSummary: MHC binding assay (UV-ligand exchange, beta2m ELISA)
# assayContext: MHC class I binding score; binding to HLA-B*08:01 ranged by peptide exchange yield (UV-ligand exchange, β2m ELISA)
measuredQuantity: Peptide exchange

Query :: // returns reported Peptide exchange for input 223 (DVSARKLRV; listed as Homo sapiens) [compound 223]
Result :: ++ (20% = ++)

Query :: // returns reported Peptide exchange for input 138 (TQHLTVATL; listed as Homo sapiens) [compound 138]
Result :: +++ (50% = +++)

Query :: // returns reported Peptide exchange for input 8 (FVRPKLVTI; listed as Homo sapiens) [compound 8]
Result :: +++ (50% = +++)

Query :: // returns reported Peptide exchange for input 41 (RGALRTLSL; listed as Homo sapiens) [compound 41]
Result :: ++ (20% = ++)

From here, focus on the item given below.
Query :: // returns reported Peptide exchange for input 181 (SIRSSYSRF; listed as Homo sapiens) [compound 181]
Result :: ++ (20% = ++)

###

# targetSystem: HLA-B*08:01 (Homo sapiens)
# protocolSummary: MHC binding assay (UV-ligand exchange, beta2m ELISA)
# assayContext: MHC class I binding score; binding to HLA-B*08:01 ranged by peptide exchange yield (UV-ligand exchange, β2m ELISA)
measuredQuantity: Peptide exchange

Below: 5 substances and their reported Peptide exchange.
Query :: // returns reported Peptide exchange for input 226 (DIYEVAVSL; listed as Homo sapiens) [compound 226]
Result :: +++ (50% = +++)

Query :: // returns reported Peptide exchange for input 205 (YMQYGFLSM; listed as Homo sapiens) [compound 205]
Result :: ++ (20% = ++)

Query :: // returns reported Peptide exchange for input 33 (WIGLRNLDL; listed as Homo sapiens) [compound 33]
Result :: +++ (50% = +++)

Query :: // returns reported Peptide exchange for input 232 (KLYIHRVTL; listed as Homo sapiens) [compound 232]
Result :: ++ (20% = ++)

Query :: // returns reported Peptide exchange for input 151 (DRHLTNRVL; listed as Homo sapiens) [compound 151]
Result :: ++ (20% = ++)

New cases:
Query :: // returns reported Peptide exchange for input 6 (NRQKRFVL; listed as Homo sapiens) [compound 6]
Result :: ++ (20% = ++)

Query :: // returns reported Peptide exchange for input 197 (YKAYPSQL; listed as Homo sapiens) [compound 197]
Result :: ++ (20% = ++)

Query :: // returns reported Peptide exchange for input 160 (LPINNTHI; listed as Homo sapiens) [compound 160]
Result :: ++ (20% = ++)

Query :: // returns reported Peptide exchange for input 29 (ELFLHPVL; listed as Homo sapiens) [compound 29]
Result :: ++ (20% = ++)

Query :: // returns reported Peptide exchange for input 17 (LLILKTVL; listed as Homo sapiens) [compound 17]
Result :: +++ (50% = +++)

###

# targetSystem: HLA-B*08:01 (Homo sapiens, UniProt P01889)
# protocolSummary: MHC binding assay (UV-ligand exchange, beta2m ELISA)
# assayContext: MHC class I binding score; binding to HLA-B*08:01 ranged by peptide exchange yield (UV-ligand exchange, β2m ELISA)
measuredQuantity: Peptide exchange

Below: 5 substances and their reported Peptide exchange.
Query :: Lookup: Peptide exchange / HLA-B*08:01 (Homo sapiens, UniProt P01889) / 113 (MEKGLASL; listed as Homo sapiens) [compound 113]
Result :: ++ (20% = ++)

Query :: Lookup: Peptide exchange / HLA-B*08:01 (Homo sapiens, UniProt P01889) / 13 (EPFTRPVL; listed as Homo sapiens) [compound 13]
Result :: ++ (20% = ++)

Query :: Lookup: Peptide exchange / HLA-B*08:01 (Homo sapiens, UniProt P01889) / 50 (TLRLLVAAL; listed as Homo sapiens) [compound 50]
Result :: +++ (50% = +++)

Query :: Lookup: Peptide exchange / HLA-B*08:01 (Homo sapiens, UniProt P01889) / 125 (FPLVTPLL; listed as Homo sapiens) [compound 125]
Result :: +++ (50% = +++)

Query :: Lookup: Peptide exchange / HLA-B*08:01 (Homo sapiens, UniProt P01889) / 123 (SLLPFTLSF; listed as Homo sapiens) [compound 123]
Result :: ++ (20% = ++)

New cases:
Query :: Lookup: Peptide exchange / HLA-B*08:01 (Homo sapiens, UniProt P01889) / 240 (KVIDRKVEL; listed as Homo sapiens) [compound 240]
Result :: ++ (20% = ++)

Query :: Lookup: Peptide exchange / HLA-B*08:01 (Homo sapiens, UniProt P01889) / 82 (SIRKRPML; listed as Homo sapiens) [compound 82]
Result :: ++ (20% = ++)

Query :: Lookup: Peptide exchange / HLA-B*08:01 (Homo sapiens, UniProt P01889) / 115 (MRILKRFLAC; listed as Homo sapiens) [compound 115]
Result :: ++ (20% = ++)

Query :: Lookup: Peptide exchange / HLA-B*08:01 (Homo sapiens, UniProt P01889) / 193 (LGGLRLTAL; listed as Homo sapiens) [compound 193]
Result :: ++ (20% = ++)

Query :: Lookup: Peptide exchange / HLA-B*08:01 (Homo sapiens, UniProt P01889) / 177 (SVPVRSSPL; listed as Homo sapiens) [compound 177]
Result :: ++ (20% = ++)

Query :: Lookup: Peptide exchange / HLA-B*08:01 (Homo sapiens, UniProt P01889) / 14 (ELILKRCL; listed as Homo sapiens) [compound 14]
Result :: +++ (50% = +++)
